Measured z-score, listed per entry.
# PROTOCOL_DESCRIPTION: S. cerevisiae growth modulation with rapamycin, primary screen, strain BY4716, OD600, 96 h (AID 1091); further: test concentration not given here
# TEST_CONTEXT: higher = more signal, called active from +8 up or from −8 down
Active and inactive are the calls of the source.

Here are 7 molecules together with their reported answers.
>>> result("COC(=O)C1=CC(CCCO)=CC(C2CC2)N(Cc2sc3ccccc3c2Cl)C=C1C(=O)OC (stereo not drawn)")
"-1.55 (inactive)"
>>> result("CC(C)NC(=O)[C@@H]1c2ccccc2C(=O)N(Cc2ccccc2)[C@H]1c1ccc(CO)cc1")
"-0.945 (inactive)"
>>> result("CCCCCCc1nc(CCCc2cc3c(c(CCCCCC)n2)[Si](C(C)C)(C(C)C)OC3)cc2c1[Si](C(C)C)(C(C)C)OC2")
"0.256 (inactive)"
>>> result("CCOC(=O)C1=CCC(C(C)(C)C)N(S(=O)(=O)c2ccc(C)cc2)C1 (stereo not drawn)")
"1.66 (inactive)"
>>> result("CCC[C@@H]1C=C(C(=O)O)[C@H](c2ccc(C)cc2)N1S(=O)(=O)c1ccc(C)cc1")
"-0.34 (inactive)"
>>> result("COc1cc(CO)ccc1OC(C)=O")
"-0.377 (inactive)"
>>> result("CCCCCN1CC=CC23O[C@@H]4/C=C\\CCC(C)OC(=O)C4[C@H]2C(=O)N(CCCCCO)[C@@H]3C1=O (stereo partly drawn)")
"-1.39 (inactive)"

Kindly consider the entry below.
Need z-score, item COCCOC(=O)N1C(=O)[C@@]2(c3ccccc31)[C@H](C(=O)Nc1nc3ccccc3s1)[C@H]1C(=O)O[C@H](c3ccccc3)[C@H](c3ccccc3)N1[C@@H]2c1ccc(OCCO)cc1
3.37 (inactive)

----------
# ASSAYED_SYSTEM: Torsin-1A (Homo sapiens) (UniProt O14656)
# Sequence (O14656 whole entry, looked up): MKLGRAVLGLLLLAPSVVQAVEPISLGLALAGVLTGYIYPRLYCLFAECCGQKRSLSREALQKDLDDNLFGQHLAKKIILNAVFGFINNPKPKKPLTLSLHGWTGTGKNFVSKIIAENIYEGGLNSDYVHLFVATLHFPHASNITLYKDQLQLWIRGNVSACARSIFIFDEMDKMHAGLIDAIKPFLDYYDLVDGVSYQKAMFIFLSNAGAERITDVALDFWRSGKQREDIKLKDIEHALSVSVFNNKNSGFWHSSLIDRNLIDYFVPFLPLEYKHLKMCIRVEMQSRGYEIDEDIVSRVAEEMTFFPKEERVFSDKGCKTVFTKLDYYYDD
# PROTOCOL_DESCRIPTION: torsin A binders from cell lysate, primary screen, small-molecule microarray, wild-type, 635/667 nm (AID 1149)
# TEST_CONTEXT: COS7 hTOR1A-WT lysate, 635 nm fluorescence, higher = more signal
Measured composite z-score, listed per entry.

>>> result("CC(=O)NCCCC[C@@H]1NC(=O)[C@@H]2C[C@H](C(=O)NCCCCN(C)C)[C@H](c3ccc(O)cc3)N2C1=O")
-0.893
>>> result("[N-]=[N+]=Nc1ccccc1[C@H]1OC(c2ccc(OCCCO)cc2)=N[C@@]1(CCS(=O)(=O)c1ccccc1)C(=O)O")
-0.363
>>> result("COc1ccc(CCNC(=O)[C@@H]2c3ccccc3C(=O)N(Cc3ccc(OC(F)(F)F)cc3)[C@H]2c2ccc(CO)cc2)cc1")
-0.271

Kindly consider the entry below.
Need composite z-score, item NCCCCCCNC(=O)[C@H]1C[C@H]2C(=O)NCC(=O)N2[C@H]1c1cccc(OCCO)c1
1.16

----------
Measured composite z-score, listed per entry.
# ASSAYED_SYSTEM: Fibroblast growth factor 10 (Homo sapiens) (UniProt O15520)
# Sequence (O15520 whole entry, looked up): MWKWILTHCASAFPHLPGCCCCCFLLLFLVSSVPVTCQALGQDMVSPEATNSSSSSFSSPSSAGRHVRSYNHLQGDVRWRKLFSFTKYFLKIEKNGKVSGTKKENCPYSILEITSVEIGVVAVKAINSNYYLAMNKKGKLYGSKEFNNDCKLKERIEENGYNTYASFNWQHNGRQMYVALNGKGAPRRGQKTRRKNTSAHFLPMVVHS
# PROTOCOL_DESCRIPTION: FGF10 binders on small-molecule microarrays, primary screen, biochemical, small-molecule microarray, 635 nm fluorescence (AID 1102)
# TEST_CONTEXT: FGF10 binding, fluorescence 635 nm, higher = more signal
Answer as a number with no unit attached.

Here are 3 compounds together with their reported answers.
>>> result_number("COC(=O)C1=CC(CCCO)=CC(C2CC2)N(Cc2sc3ccccc3c2Cl)C=C1C(=O)OC (centres undefined)")
1.02
>>> result_number("C#CCN(C(/C=C/c1ccccc1)CO)C(C(=O)O)c1ccccc1 (centres undefined)")
0.0698
>>> result_number("[N-]=[N+]=Nc1ccccc1[C@H]1OC(c2ccc(OCCCO)cc2)=N[C@@]1(CCS(=O)(=O)c1ccccc1)C(=O)O")
0.104

Kindly consider the entry below.
Need composite z-score, item O=C1N(CCS(=O)(=O)c2ccccc2)Cc2ccccc2C[C@]12N=C(c1ccc(OCCCO)cc1)O[C@@H]2c1ccccc1
1.4

----------
# PROTOCOL_DESCRIPTION: anti-His antibody binders, primary screen, artefact control for SMM control protein annotation, biochemical, small-molecule microarray, 635 nm fluorescence (AID 1128);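 further: score merges feature fluorescence with signal-to-noise for each printed compound spot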
# TEST_CONTEXT: anti-His Alexa647 antibody binding, higher = more signal
Hi, to clarify the labels: Y covers composite z-score from 2 upward, N covers anything below 2.

For orientation, consider the following solved cases.
>>> label_value("CC(C)C[C@@H]1NC(=O)[C@@H]2C[C@H](C(=O)NCCCCCC[N+](C)(C)C)[C@H](c3ccc(O)cc3)N2C1=O")
"N"
>>> label_value("CC(=O)NCCCC[C@@H]1NC(=O)[C@H]2C[C@@H](C(=O)NCCCCCC[N+](C)(C)C)[C@@H](c3cccc(OCCO)c3)N2C1=O")
"N"
>>> label_value("COC(=O)[C@@]1(Cc2ccccc2)[C@H]2c3cc(C(=O)N(C)C)n(Cc4c(-c5ccccc5)noc4C)c3C[C@H]2CN1C(=O)c1ccccc1")
"Y"

Textbook exercise: given the entry COC(=O)[C@@]1(Cc2ccccc2N=[N+]=[N-])COC(c2ccc(OCCCO)cc2)=N1 , state whether its composite z-score is greater than or equal to 2.
N

Textbook exercise: given the entry COC(=O)[C@@]1(Cc2ccc(OC)cc2)[C@H]2c3cc(C(=O)N(C)C)n(Cc4c(OC)[nH]cc(C)c4=O)c3C[C@H]2CN1C(=O)c1ccccc1 , state whether its composite z-score is greater than or equal to 2.
N

Textbook exercise: given the entry CC(C)(C)OC(=O)CC[C@@]1(C(=O)O)N=C(c2ccc(OCCCO)cc2)O[C@@H]1c1ccccc1N=[N+]=[N-] , state whether its composite z-score is greater than or equal to 2.
N

----------
# PROTOCOL_DESCRIPTION: inhibitors of hydroxyurea-induced Chk1 phosphorylation, primary screen, imaging, HeLa, phospho-Chk1 nuclear intensity (AID 1187); further: test concentration not given here
# TEST_CONTEXT: hydroxyurea-induced phospho-Chk1 immunofluorescence imaging, higher = more signal
Hi, to clarify the labels: true (1) covers z-score from -0.3 upward, false (0) covers anything below -0.3.

>>> label_value("[N-]=[N+]=NCc1ccccc1C[C@]1(C(=O)NCC(O)CO)N=C(c2ccc(OCCCO)cc2)O[C@H]1c1ccccc1N=[N+]=[N-] (stereo partly drawn)")
"false (0)"
>>> label_value("Cc1ccc(F)cc1S(=O)(=O)N[C@@H]1CCN(Cc2ccc(-c3ccccc3)cc2)C1")
"true (1)"

Textbook exercise: given the entry CN(C)CCCCNC(=O)[C@H]1C[C@H]2C(=O)N[C@@H](Cc3ccccc3)C(=O)N2[C@H]1c1ccc(O)cc1 , state whether its z-score is greater than or equal to -0.3.
true (1)

Textbook exercise: given the entry CC(C)Cc1ccc(CN2CC[C@@H](NS(=O)(=O)c3ccccc3)C2)cc1 , state whether its z-score is greater than or equal to -0.3.
false (0)

Textbook exercise: given the entry O=C1N(CCS(=O)(=O)c2ccccc2)Cc2ccccc2[C@H]2OC(c3ccc(OCCCO)cc3)=N[C@@]12CCS(=O)(=O)c1ccccc1 , state whether its z-score is greater than or equal to -0.3.
false (0)

Textbook exercise: given the entry CCOC(=O)C1=C[C@@H](C(C)C)N(S(=O)(=O)c2ccc(C)cc2)[C@H]1c1ccc(C(C)C)cc1 , state whether its z-score is greater than or equal to -0.3.
true (1)

Textbook exercise: given the entry C[N+](C)(C)CCCCCCNC(=O)[C@H]1C[C@H]2C(=O)N3CCC[C@H]3C(=O)N2[C@H]1c1ccc(O)cc1 , state whether its z-score is greater than or equal to -0.3.
false (0)

----------
# ASSAYED_SYSTEM: Dihydroorotate dehydrogenase (quinone), mitochondrial (Plasmodium falciparum (isolate 3D7)) (UniProt Q08210)
# Sequence (Q08210 whole entry, looked up): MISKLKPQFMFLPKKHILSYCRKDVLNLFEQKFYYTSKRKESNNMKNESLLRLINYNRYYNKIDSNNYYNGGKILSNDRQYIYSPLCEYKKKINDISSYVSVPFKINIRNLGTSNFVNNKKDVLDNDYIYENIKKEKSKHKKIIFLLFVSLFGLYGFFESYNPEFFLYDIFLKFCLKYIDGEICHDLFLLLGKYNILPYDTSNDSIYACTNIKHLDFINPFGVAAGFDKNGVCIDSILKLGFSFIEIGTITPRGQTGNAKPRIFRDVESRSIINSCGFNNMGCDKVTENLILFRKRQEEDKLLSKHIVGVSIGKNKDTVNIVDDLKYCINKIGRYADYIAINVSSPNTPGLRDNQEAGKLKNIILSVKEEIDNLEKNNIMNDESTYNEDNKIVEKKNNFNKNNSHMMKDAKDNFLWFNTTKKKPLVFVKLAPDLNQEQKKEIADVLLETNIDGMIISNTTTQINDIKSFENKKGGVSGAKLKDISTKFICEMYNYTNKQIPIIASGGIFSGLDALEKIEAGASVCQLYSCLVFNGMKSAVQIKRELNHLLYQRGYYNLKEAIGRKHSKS
# PROTOCOL_DESCRIPTION: PfDHODH enzyme inhibitors, primary screen, biochemical, C-terminal His tag, absorbance 600 nm (AID 1175);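 further: recombinant parasite enzyme with a five histidine tag at its C terminus; test concentration not given here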
# TEST_CONTEXT: DCIP absorbance 600 nm, higher = more signal, called active from +8 up or from −8 down
Hi, to clarify the labels: Criterion met covers composite z-score from 0.4 upward, Criterion not met covers anything below 0.4.

Textbook exercise: given the entry COCCCNC(=O)[C@@]1(CCC(=O)OC(C)(C)C)N=C(c2ccc(OCCCO)cc2)O[C@H]1c1ccccc1CN=[N+]=[N-] , state whether its composite z-score is greater than or equal to 0.4.
Criterion not met

Textbook exercise: given the entry COCCOC(=O)N1C(=O)[C@@]2(c3cc(C#CCNC(N)=O)ccc31)[C@H](C(=O)N1CCN(c3ncccn3)CC1)[C@H]1C(=O)O[C@H](c3ccccc3)[C@H](c3ccccc3)N1[C@@H]2c1ccccc1OCCO , state whether its composite z-score is greater than or equal to 0.4.
Criterion not met

Textbook exercise: given the entry COCCOC(=O)N1C(=O)[C@@]2(c3cc(C#CCC(C(=O)OC)C(=O)OC)ccc31)[C@H](c1ccccc1OCCO)N1[C@H](c3ccccc3)[C@H](c3ccccc3)OC(=O)[C@H]1[C@@H]2C(N)=O , state whether its composite z-score is greater than or equal to 0.4.
Criterion met
